experimental_system: T1, Human CD3eg linker (human)
T1 construct: single-chain construct; also called recombinant human CD3
T1 chain: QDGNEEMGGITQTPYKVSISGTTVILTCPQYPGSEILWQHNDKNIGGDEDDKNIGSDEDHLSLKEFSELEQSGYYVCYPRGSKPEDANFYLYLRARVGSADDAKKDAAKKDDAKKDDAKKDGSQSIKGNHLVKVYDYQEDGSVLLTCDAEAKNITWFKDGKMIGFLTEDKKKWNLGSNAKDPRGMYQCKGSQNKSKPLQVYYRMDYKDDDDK
protocol: SPR, vs unmutated H183/L072
Catalogue of binders with associated fold change of affinity
Use fold as the unit, but write only the number.

// query GET /values?readout=fold change of affinity&item= dBBDu183H F100gW/dBBDu072L (antibody, name in Kabat numbering, V domains shown) VH: QVQLVESGGGLVQPGRSLRLSCAASGFTFSNAWMHWVRQAPGKGLEWVAQIKDKGNAYAAYYAPSVKGRFTISRDDSKNSIYLQMNSLKTEDTAVYYCHYVHYASASTVLPAWGVDAWGQGTTVTVSS VL: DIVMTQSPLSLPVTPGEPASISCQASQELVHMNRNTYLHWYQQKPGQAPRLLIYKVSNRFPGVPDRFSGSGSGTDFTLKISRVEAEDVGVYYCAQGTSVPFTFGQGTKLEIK
// result 0.9

// query Please do the same for dBBDu183H Y97K/dBBDu072L (antibody, name in Kabat numbering, V domains shown) VH: QVQLVESGGGLVQPGRSLRLSCAASGFTFSNAWMHWVRQAPGKGLEWVAQIKDKGNAYAAYYAPSVKGRFTISRDDSKNSIYLQMNSLKTEDTAVYYCHYVHKASASTVLPAFGVDAWGQGTTVTVSS VL: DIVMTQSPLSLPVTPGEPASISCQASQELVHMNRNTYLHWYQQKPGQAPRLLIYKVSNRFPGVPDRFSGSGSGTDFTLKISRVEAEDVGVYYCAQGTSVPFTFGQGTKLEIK as well.
// result 0

// query Please do the same for dBBDu183H K64Y/dBBDu072L (antibody, name in Kabat numbering, V domains shown) VH: QVQLVESGGGLVQPGRSLRLSCAASGFTFSNAWMHWVRQAPGKGLEWVAQIKDKGNAYAAYYAPSVYGRFTISRDDSKNSIYLQMNSLKTEDTAVYYCHYVHYASASTVLPAFGVDAWGQGTTVTVSS VL: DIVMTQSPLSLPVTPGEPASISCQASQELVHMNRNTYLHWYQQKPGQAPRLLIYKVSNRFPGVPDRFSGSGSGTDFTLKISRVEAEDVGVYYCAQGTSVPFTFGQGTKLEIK as well.
// result 1
